# test protocol: activity coefficient (dimensionless); of the first substance listed, at infinite dilution; xn = mol fraction of the nth substance listed
# settings: 368.15 K; 101 kPa; Liquid; Chromatography; x1 = 0
# label = TRUE if activity coefficient >= 3 else FALSE

Identify whether the reported activity coefficient of the following compound is 3 or greater: C#CCCCCC [1-heptyne] + CCCC[N+]1(C)CCCC1.N#C[B-](C#N)(C#N)C#N
TRUE

Identify whether the reported activity coefficient of the following compound is 3 or greater: C=CCCCCCC [oct-1-ene] + CCCC[N+]1(C)CCCC1.N#C[B-](C#N)(C#N)C#N
TRUE

Identify whether the reported activity coefficient of the following compound is 3 or greater: CCO [ethanol] + CCCC[N+]1(C)CCCC1.N#C[B-](C#N)(C#N)C#N
FALSE

Identify whether the reported activity coefficient of the following compound is 3 or greater: CCC(C)(C)OC [2-methoxy-2-methylbutane] + CCCC[N+]1(C)CCCC1.N#C[B-](C#N)(C#N)C#N
TRUE

Identify whether the reported activity coefficient of the following compound is 3 or greater: C1=CCCCC1 [cyclohexene] + CCCC[N+]1(C)CCCC1.N#C[B-](C#N)(C#N)C#N
TRUE

Identify whether the reported activity coefficient of the following compound is 3 or greater: Cc1ccc(C)cc1 [1,4-dimethylbenzene] + CCCC[N+]1(C)CCCC1.N#C[B-](C#N)(C#N)C#N
FALSE

Identify whether the reported activity coefficient of the following compound is 3 or greater: CCOCC [diethyl ether] + CCCC[N+]1(C)CCCC1.N#C[B-](C#N)(C#N)C#N
FALSE

Identify whether the reported activity coefficient of the following compound is 3 or greater: CCC(=O)CC [pentan-3-one] + CCCC[N+]1(C)CCCC1.N#C[B-](C#N)(C#N)C#N
FALSE

Identify whether the reported activity coefficient of the following compound is 3 or greater: CCCCCCCCCC [decane] + CCCC[N+]1(C)CCCC1.N#C[B-](C#N)(C#N)C#N
TRUE

----------
# test protocol: activity coefficient (dimensionless); of the first substance listed, at infinite dilution; xn = mol fraction of the nth substance listed
# settings: 348.15 K; 101 kPa; Liquid; Chromatography; x1 = 0
Mark true (1) only for activity coefficient values smaller than 2; exact matches and larger values are false (0).

Given Cc1ccc(C)cc1 [1,4-dimethylbenzene] + CCCC[N+]1(C)CCCC1.N#C[B-](C#N)(C#N)C#N , is recorded activity coefficient strictly lower than 2?
true (1)

Given C#CCCCCC [1-heptyne] + CCCC[N+]1(C)CCCC1.N#C[B-](C#N)(C#N)C#N , is recorded activity coefficient strictly lower than 2?
false (0)

Given CCC(=O)CC [pentan-3-one] + CCCC[N+]1(C)CCCC1.N#C[B-](C#N)(C#N)C#N , is recorded activity coefficient strictly lower than 2?
true (1)

Given CCCCCCCCC [nonane] + CCCC[N+]1(C)CCCC1.N#C[B-](C#N)(C#N)C#N , is recorded activity coefficient strictly lower than 2?
false (0)

Given CCCCCC [hexane] + CCCC[N+]1(C)CCCC1.N#C[B-](C#N)(C#N)C#N , is recorded activity coefficient strictly lower than 2?
false (0)

Given CC(C)CC(C)(C)C [2,2,4-trimethylpentane] + CCCC[N+]1(C)CCCC1.N#C[B-](C#N)(C#N)C#N , is recorded activity coefficient strictly lower than 2?
false (0)

Given CO [methanol] + CCCC[N+]1(C)CCCC1.N#C[B-](C#N)(C#N)C#N , is recorded activity coefficient strictly lower than 2?
true (1)

Given C1=CCCCC1 [cyclohexene] + CCCC[N+]1(C)CCCC1.N#C[B-](C#N)(C#N)C#N , is recorded activity coefficient strictly lower than 2?
false (0)
